The following compounds have recorded Kd on EphA2 (Homo sapiens (Human)).
Sequence (P29317 24-976): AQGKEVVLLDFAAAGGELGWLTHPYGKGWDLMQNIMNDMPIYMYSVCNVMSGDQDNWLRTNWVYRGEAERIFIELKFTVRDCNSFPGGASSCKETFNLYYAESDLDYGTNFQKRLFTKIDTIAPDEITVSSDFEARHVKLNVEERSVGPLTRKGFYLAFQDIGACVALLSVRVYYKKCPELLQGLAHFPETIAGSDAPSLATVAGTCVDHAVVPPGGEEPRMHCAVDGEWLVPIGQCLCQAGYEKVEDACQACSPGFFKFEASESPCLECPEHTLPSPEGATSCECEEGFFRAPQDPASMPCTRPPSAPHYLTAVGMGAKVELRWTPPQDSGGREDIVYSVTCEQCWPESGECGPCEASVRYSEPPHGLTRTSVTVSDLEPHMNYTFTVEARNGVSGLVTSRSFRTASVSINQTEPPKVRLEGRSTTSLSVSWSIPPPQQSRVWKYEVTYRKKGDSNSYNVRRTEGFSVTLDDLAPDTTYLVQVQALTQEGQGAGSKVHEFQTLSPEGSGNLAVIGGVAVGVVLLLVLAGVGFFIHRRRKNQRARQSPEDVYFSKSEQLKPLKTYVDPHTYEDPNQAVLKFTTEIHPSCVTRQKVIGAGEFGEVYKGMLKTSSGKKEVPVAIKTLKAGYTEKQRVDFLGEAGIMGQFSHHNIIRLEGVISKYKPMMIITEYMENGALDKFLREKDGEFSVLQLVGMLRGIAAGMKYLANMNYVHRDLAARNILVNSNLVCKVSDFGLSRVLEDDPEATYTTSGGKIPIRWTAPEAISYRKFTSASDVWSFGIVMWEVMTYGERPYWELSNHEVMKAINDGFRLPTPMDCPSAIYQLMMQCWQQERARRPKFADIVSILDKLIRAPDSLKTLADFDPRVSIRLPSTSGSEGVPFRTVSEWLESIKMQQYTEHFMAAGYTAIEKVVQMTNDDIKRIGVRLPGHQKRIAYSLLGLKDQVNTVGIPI
measured-metric: Kd (nM)

// worked examples, Kd included
In [3]: df
Out[3]:
                                   compound             target_under_test   u  readout_value
0  Cc1ccc(C(=O)Nc2cccc(C(F)(F)F)c2)cc1Nc1nc(-c2cccnc2)nc2ncccc12 [@5]  EphA2 (Homo sapiens (Human))  nM            225
1  Cc1cc(C(=O)Nc2cccc(C(F)(F)F)c2)ccc1Nc1nc(N2CC[C@H](O)C2)nc(-n2ccnc2)n1 [@12]  EphA2 (Homo sapiens (Human))  nM            132
2  Cc1ccc(C(=O)Nc2cccc(Cl)c2)cc1Nc1nc(N2CC[C@H](O)C2)nc(-n2ccnc2)n1 [@13]  EphA2 (Homo sapiens (Human))  nM             97
3  Cc1ccc(C(=O)Nc2cccc(C(F)(F)F)c2)cc1Nc1nc(-c2cccnc2)nc2ccccc12 [@4]  EphA2 (Homo sapiens (Human))  nM             86

1. Cc1ccc(C(=O)Nc2cccc(C(F)(F)F)c2)cc1Nc1nc(-c2cnccn2)nc2c1cnn2C [@1]
2. Cc1ccc(C(=O)Nc2cccc(C(F)(F)F)c2)cc1Nc1nc(-c2cnccn2)nc2nn(C)cc12 [@2]
Higher Kd: 1 or 2 ? Your answer should be the label attached to the chosen record.
2

* * *

Catalogue of Kd readings, one per entry.
# target-under-test: UniProt:P29317
API: value field is a number in nM; no unit string.

In [3]: df
Out[3]:
                                item_smiles  target_under_test   u  readout_value
0  Cc1cc(C(=O)Nc2cccc(C(F)(F)F)c2)ccc1Nc1nc(N2CCNCC2)nc(-n2ccnc2)n1     UniProt:P29317  nM            443

Please turn your attention to the following entry.
Find Kd (UniProt:P29317) for the entry Cc1ccc(C(=O)Nc2cccc(C(F)(F)F)c2)cc1Nc1nc(N2CCOCC2)nc(-n2ccnc2)n1
191

The origin of these recorded values is patent US12486270B2.
